Answer each item with its documented pIC50.
- Tested on: MDA-MB-231
- assaySummary: Cytotoxicity against human MDA-MB-231 cells assessed as growth inhibition after 72 hrs by MTT assay
- Format: functional, cell-based
- testContext: MDA-MB-231, 72 h
Give bare numbers, as −log10 of the molar value.

# return recorded pIC50 for entry `CC(=O)Oc1ccc(COP(=O)(OCc2ccc(OC(C)=O)cc2)O[C@H]2[C@@H]3OC(C)(C)O[C@H]3[C@H](OP(=O)(OCc3ccc(OC(C)=O)cc3)OCc3ccc(OC(C)=O)cc3)[C@H]3OC(C)(C)O[C@H]32)cc1`
6.08

# return recorded pIC50 for entry CC(=O)Oc1ccc(COP(=O)(OCc2ccc(OC(C)=O)cc2)OC2C3OC4OC(C3OCc3ccccc3)C(OP(=O)(OCc3ccc(OC(C)=O)cc3)OCc3ccc(OC(C)=O)cc3)C2O4)cc1 (stereo not drawn)
5.82

Now for another entry.
# return recorded pIC50 for entry `CC(=O)Oc1ccc(COP(=O)(OCc2ccc(OC(C)=O)cc2)O[C@@H]2[C@@H](OCc3ccccc3)[C@H](OP(=O)(OCc3ccc(OC(C)=O)cc3)OCc3ccc(OC(C)=O)cc3)[C@H](OCc3ccccc3)[C@H](OCc3ccccc3)[C@H]2OCc2ccccc2)cc1`
4.54
